# Test system: A549
# ASSAY_METHOD_TEXT: Cytotoxicity against human A549 cells after 24 to 72 hrs by MTT assay
# Type: functional, cell-based
Would you mind telling me the reported pIC50 of each entry?
Just the number, please; pIC50 means minus log10 of the concentration in mol/L.

Recorded pIC50 (compound `CCCCC(=O)NC[C@@]1(O)[C@H](OC(C)=O)[C@]2(CC)C=CCN3CC[C@@]4(c5cc([C@@]6(C(=O)OC)C[C@@H]7C=C(CC)CN(Cc8c6[nH]c6ccccc86)C7)c(OC)cc5N(C)[C@@H]14)[C@@H]32` ): 7.66

Recorded pIC50 (compound `CCC1=C[C@@H]2CN(C1)Cc1c([nH]c3ccccc13)[C@@](C(=O)OC)(c1cc3c(cc1OC)N(C)[C@H]1[C@@](O)(CNC(=O)CC(C)C)[C@H](OC(C)=O)[C@]4(CC)C=CCN5CC[C@]31[C@@H]54)C2` ): 7.66

Recorded pIC50 (compound `CCC1=C[C@@H]2CN(C1)Cc1c([nH]c3ccccc13)[C@@](C(=O)OC)(c1cc3c(cc1OC)N(C)[C@H]1[C@@](O)(CNC(=O)c4ccc(C(F)(F)F)cc4)[C@H](OC(C)=O)[C@]4(CC)C=CCN5CC[C@]31[C@@H]54)C2` ): 7.68

Recorded pIC50 (compound `CCC1=C[C@@H]2CN(C1)Cc1c([nH]c3ccccc13)[C@@](C(=O)OC)(c1cc3c(cc1OC)N(C)[C@H]1[C@@](O)(CNC(=O)C(C)(C)C)[C@H](OC(C)=O)[C@]4(CC)C=CCN5CC[C@]31[C@@H]54)C2` ): 7.43

###

# System: Mus musculus
# ASSAY_METHOD_TEXT: Toxicity in BALB/cA nude mouse xenografted with human A549 cells assessed as change in body weight at 9 mg/kg, iv once every seven days for three doses (reference value: 27.61 g)
# APPLIED_CONDITIONS: in vivo
MEASUREMENT_NAME: Activity (g)
Number only, in g; omit the unit.

Tested on Mus musculus: `CCC1=C[C@@H]2CN(C1)Cc1c([nH]c3ccccc13)[C@@](C(=O)OC)(c1cc3c(cc1OC)N(C)[C@H]1[C@@](O)(C(=O)OC)[C@H](OC(C)=O)[C@]4(CC)C=CCN5CC[C@]31[C@@H]54)C2` . Observed Activity: 26.22

Tested on Mus musculus: `CCC1=C[C@@H]2CN(C1)Cc1c([nH]c3ccccc13)[C@@](C(=O)OC)(c1cc3c(cc1OC)N(C)[C@H]1[C@@](O)(CNC(=O)c4ccco4)[C@H](OC(C)=O)[C@]4(CC)C=CCN5CC[C@]31[C@@H]54)C2.O=C(O)C(O)C(O)C(=O)O` . Observed Activity: 25.45

Tested on Mus musculus: `CCC1=C[C@@H]2CN(C1)Cc1c([nH]c3ccccc13)[C@@](C(=O)OC)(c1cc3c(cc1OC)N(C)[C@H]1[C@@](O)(CNC(=O)C4CC4)[C@H](OC(C)=O)[C@]4(CC)C=CCN5CC[C@]31[C@@H]54)C2.O=C(O)C(O)C(O)C(=O)O` . Observed Activity: 26.53

Tested on Mus musculus: `CCC1=C[C@@H]2CN(C1)Cc1c([nH]c3ccccc13)[C@@](C(=O)OC)(c1cc3c(cc1OC)N(C)[C@H]1[C@@](O)(CNC(=O)c4ccccc4)[C@H](OC(C)=O)[C@]4(CC)C=CCN5CC[C@]31[C@@H]54)C2.O=C(O)C(O)C(O)C(=O)O` . Observed Activity: 24.6

###

# Tested on: A549
# ASSAY_METHOD_TEXT: Antitumor activity against human A549 cells xenografted in BALB/cA nude mouse assessed as growth inhibition at 9 mg/kg, iv once every seven days for three doses relative to control
# APPLIED_CONDITIONS: read-out: GI
Would you mind telling me the reported inhibition in vivo at 9 mg/kg of each entry?
Number only, in %; omit the unit.

Tested on A549: `CCC1=C[C@@H]2CN(C1)Cc1c([nH]c3ccccc13)[C@@](C(=O)OC)(c1cc3c(cc1OC)N(C)[C@H]1[C@@](O)(CNC(=O)c4ccccc4)[C@H](OC(C)=O)[C@]4(CC)C=CCN5CC[C@]31[C@@H]54)C2.O=C(O)C(O)C(O)C(=O)O` . Observed inhibition in vivo at 9 mg/kg: 43.5

Tested on A549: CCC1=C[C@@H]2CN(C1)Cc1c([nH]c3ccccc13)[C@@](C(=O)OC)(c1cc3c(cc1OC)N(C)[C@H]1[C@@](O)(C(=O)OC)[C@H](OC(C)=O)[C@]4(CC)C=CCN5CC[C@]31[C@@H]54)C2 [VINORELBINE] . Observed inhibition in vivo at 9 mg/kg: 55.9

Tested on A549: `CCC1=C[C@@H]2CN(C1)Cc1c([nH]c3ccccc13)[C@@](C(=O)OC)(c1cc3c(cc1OC)N(C)[C@H]1[C@@](O)(CNC(=O)c4ccco4)[C@H](OC(C)=O)[C@]4(CC)C=CCN5CC[C@]31[C@@H]54)C2.O=C(O)C(O)C(O)C(=O)O` . Observed inhibition in vivo at 9 mg/kg: 58

Tested on A549: `CCC1=C[C@@H]2CN(C1)Cc1c([nH]c3ccccc13)[C@@](C(=O)OC)(c1cc3c(cc1OC)N(C)[C@H]1[C@@](O)(CNC(=O)C4CC4)[C@H](OC(C)=O)[C@]4(CC)C=CCN5CC[C@]31[C@@H]54)C2.O=C(O)C(O)C(O)C(=O)O` . Observed inhibition in vivo at 9 mg/kg: 18

###

# Test system: A549
# ASSAY_METHOD_TEXT: Cytotoxicity against human A549 cells after 24 to 72 hrs by MTT assay
# Format: functional, cell-based
Would you mind telling me the reported pIC50 of each entry?
Just the number, please; pIC50 means minus log10 of the concentration in mol/L.

Recorded pIC50 (molecule `CCC1=C[C@@H]2CN(C1)Cc1c([nH]c3ccccc13)[C@@](C(=O)OC)(c1cc3c(cc1OC)N(C)[C@H]1[C@@](O)(CNC(=O)c4ccc(OC)c(OC)c4)[C@H](OC(C)=O)[C@]4(CC)C=CCN5CC[C@]31[C@@H]54)C2` ): 8.19

Recorded pIC50 (molecule `CCC1=C[C@@H]2CN(C1)Cc1c([nH]c3ccccc13)[C@@](C(=O)OC)(c1cc3c(cc1OC)N(C)[C@H]1[C@@](O)(CNC(=O)c4cccc(C)c4)[C@H](OC(C)=O)[C@]4(CC)C=CCN5CC[C@]31[C@@H]54)C2` ): 7.76

Recorded pIC50 (molecule `CCC1=C[C@@H]2CN(C1)Cc1c([nH]c3ccccc13)[C@@](C(=O)OC)(c1cc3c(cc1OC)N(C)[C@H]1[C@@](O)(CNC(=O)c4ccco4)[C@H](OC(C)=O)[C@]4(CC)C=CCN5CC[C@]31[C@@H]54)C2.O=C(O)C(O)C(O)C(=O)O` ): 8.49

Recorded pIC50 (molecule `CCC1=C[C@@H]2CN(C1)Cc1c([nH]c3ccccc13)[C@@](C(=O)OC)(c1cc3c(cc1OC)N(C)[C@H]1[C@@](O)(CNC(=O)c4ccc(Cl)cc4)[C@H](OC(C)=O)[C@]4(CC)C=CCN5CC[C@]31[C@@H]54)C2` ): 7.59

Recorded pIC50 (molecule `CCC(=O)NC[C@@]1(O)[C@H](OC(C)=O)[C@]2(CC)C=CCN3CC[C@@]4(c5cc([C@@]6(C(=O)OC)C[C@@H]7C=C(CC)CN(Cc8c6[nH]c6ccccc86)C7)c(OC)cc5N(C)[C@@H]14)[C@@H]32` ): 7.81

Recorded pIC50 (molecule `CCC1=C[C@@H]2CN(C1)Cc1c([nH]c3ccccc13)[C@@](C(=O)OC)(c1cc3c(cc1OC)N(C)[C@H]1[C@@](O)(CNC(=O)c4ccc([N+](=O)[O-])cc4)[C@H](OC(C)=O)[C@]4(CC)C=CCN5CC[C@]31[C@@H]54)C2` ): 7.39

Recorded pIC50 (molecule `CCC1=C[C@@H]2CN(C1)Cc1c([nH]c3ccccc13)[C@@](C(=O)OC)(c1cc3c(cc1OC)N(C)[C@H]1[C@@](O)(CNC(=O)c4ccccc4)[C@H](OC(C)=O)[C@]4(CC)C=CCN5CC[C@]31[C@@H]54)C2.O=C(O)C(O)C(O)C(=O)O` ): 8.30

Recorded pIC50 (molecule `CCC1=C[C@@H]2CN(C1)Cc1c([nH]c3ccccc13)[C@@](C(=O)OC)(c1cc3c(cc1OC)N(C)[C@H]1[C@@](O)(CNC(=O)c4ccncc4)[C@H](OC(C)=O)[C@]4(CC)C=CCN5CC[C@]31[C@@H]54)C2` ): 8.09

Recorded pIC50 (molecule `CCCC(=O)NC[C@@]1(O)[C@H](OC(C)=O)[C@]2(CC)C=CCN3CC[C@@]4(c5cc([C@@]6(C(=O)OC)C[C@@H]7C=C(CC)CN(Cc8c6[nH]c6ccccc86)C7)c(OC)cc5N(C)[C@@H]14)[C@@H]32` ): 7.76

Recorded pIC50 (molecule CCC1=C[C@@H]2CN(C1)Cc1c([nH]c3ccccc13)[C@@](C(=O)OC)(c1cc3c(cc1OC)N(C)[C@H]1[C@@](O)(C(=O)OC)[C@H](OC(C)=O)[C@]4(CC)C=CCN5CC[C@]31[C@@H]54)C2 [VINORELBINE] ): 8.05

Recorded pIC50 (molecule `CCC1=C[C@@H]2CN(C1)Cc1c([nH]c3ccccc13)[C@@](C(=O)OC)(c1cc3c(cc1OC)N(C)[C@H]1[C@@](O)(CNC(=O)C(C)C)[C@H](OC(C)=O)[C@]4(CC)C=CCN5CC[C@]31[C@@H]54)C2` ): 7.94

Recorded pIC50 (molecule `CCC1=C[C@@H]2CN(C1)Cc1c([nH]c3ccccc13)[C@@](C(=O)OC)(c1cc3c(cc1OC)N(C)[C@H]1[C@@](O)(CNC(C)=O)[C@H](OC(C)=O)[C@]4(CC)C=CCN5CC[C@]31[C@@H]54)C2` ): 7.61

Recorded pIC50 (molecule `CCC1=C[C@@H]2CN(C1)Cc1c([nH]c3ccccc13)[C@@](C(=O)OC)(c1cc3c(cc1OC)N(C)[C@H]1[C@@](O)(CNC(=O)c4ccccc4F)[C@H](OC(C)=O)[C@]4(CC)C=CCN5CC[C@]31[C@@H]54)C2` ): 8.14

Recorded pIC50 (molecule `CCC1=C[C@@H]2CN(C1)Cc1c([nH]c3ccccc13)[C@@](C(=O)OC)(c1cc3c(cc1OC)N(C)[C@H]1[C@@](O)(CNC(=O)c4ccc(C)cc4)[C@H](OC(C)=O)[C@]4(CC)C=CCN5CC[C@]31[C@@H]54)C2` ): 7.82

Recorded pIC50 (molecule `CCC1=C[C@@H]2CN(C1)Cc1c([nH]c3ccccc13)[C@@](C(=O)OC)(c1cc3c(cc1OC)N(C)[C@H]1[C@@](O)(CNC(=O)c4cccc(OC)c4)[C@H](OC(C)=O)[C@]4(CC)C=CCN5CC[C@]31[C@@H]54)C2` ): 8.20

Recorded pIC50 (molecule `CCC1=C[C@@H]2CN(C1)Cc1c([nH]c3ccccc13)[C@@](C(=O)OC)(c1cc3c(cc1OC)N(C)[C@H]1[C@@](O)(CNC(=O)C4CC4)[C@H](OC(C)=O)[C@]4(CC)C=CCN5CC[C@]31[C@@H]54)C2.O=C(O)C(O)C(O)C(=O)O` ): 8.52
